# experimental-target: UniProt:P10826
# Sequence (P10826 whole entry): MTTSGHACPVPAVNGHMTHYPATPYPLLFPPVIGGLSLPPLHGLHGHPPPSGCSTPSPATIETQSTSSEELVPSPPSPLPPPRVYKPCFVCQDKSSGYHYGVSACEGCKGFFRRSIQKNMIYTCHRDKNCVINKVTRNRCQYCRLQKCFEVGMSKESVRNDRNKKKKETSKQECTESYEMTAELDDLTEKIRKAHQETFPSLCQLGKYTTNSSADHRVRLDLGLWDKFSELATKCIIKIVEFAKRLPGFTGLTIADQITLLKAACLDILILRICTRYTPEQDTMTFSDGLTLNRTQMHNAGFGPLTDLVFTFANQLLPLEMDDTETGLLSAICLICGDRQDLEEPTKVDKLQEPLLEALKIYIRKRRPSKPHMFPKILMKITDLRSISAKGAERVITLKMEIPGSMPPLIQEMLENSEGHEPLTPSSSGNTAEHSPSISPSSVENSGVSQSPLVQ
# run-description: Transcriptional activation in CV-1 cells expressing RAR-beta receptor
# Assay type: cell-based
pEC50: −log10 of the molar value.
Kindly return 1 if reported pEC50 is no lower than 7; return 0 if it is lower.

smiles-repr	class
CC(/C=C/C=C(\C)c1ccc2c(c1)C(C)(C)CO2)=C\C(=O)O	0
C/C(=C\c1ccc(C(=O)O)cc1)c1ccc2c(c1)C(C)(C)CS2	1
C/C(=C\c1ccc(C(=O)O)cc1)c1ccc2c(c1)C(C)(C)CCO2	0
CC(/C=C/C=C(\C)c1ccc2c(c1)C(C)(C)CS2)=C\C(=O)O	0
CC(/C=C/C=C(\C)c1ccc2c(c1)C(C)(C)CCS2)=C\C(=O)O	1

Does C/C(=C\c1ccc(C(=O)O)cc1)c1ccc2c(c1)C(C)(C)CO2 have a reported pEC50 of at least 7?
0

Next compound up: COC(=O)c1ccc(/C=C(\C)c2ccc3c(c2)C(C)(C)CO3)cc1
0
